Molecular target: Cytochrome P450 3A4 (Homo sapiens) (UniProt P08684)
Sequence (P08684 whole entry, looked up): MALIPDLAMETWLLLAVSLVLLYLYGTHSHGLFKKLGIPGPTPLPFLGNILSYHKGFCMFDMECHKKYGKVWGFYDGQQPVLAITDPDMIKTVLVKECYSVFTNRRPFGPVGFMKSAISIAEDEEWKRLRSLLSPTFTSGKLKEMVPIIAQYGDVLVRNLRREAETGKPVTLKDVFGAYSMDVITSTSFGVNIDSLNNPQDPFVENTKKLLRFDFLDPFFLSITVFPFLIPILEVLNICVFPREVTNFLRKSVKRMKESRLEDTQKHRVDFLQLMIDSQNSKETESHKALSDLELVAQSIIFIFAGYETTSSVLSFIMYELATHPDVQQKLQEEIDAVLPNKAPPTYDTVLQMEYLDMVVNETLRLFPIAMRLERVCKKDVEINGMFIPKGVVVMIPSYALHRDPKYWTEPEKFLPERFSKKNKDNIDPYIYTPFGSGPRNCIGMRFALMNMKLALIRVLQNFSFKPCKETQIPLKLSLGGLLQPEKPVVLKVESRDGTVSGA
Assay: qHTS Assay for Inhibitors and Substrates of Cytochrome P450 3A4 (AID 884); also: nearly all actives have a fitted effect of over 50% in size
Settings: recombinant CYP3A4, Luciferin-PPXE luminescence; series mostly up to 57.1 µM
Records with an inconclusive call do not appear. Activity calls are given as the source filed them. Calls follow the shape of the dose curve; as a rule, active = well fitted inhibition curve with a large enough effect; inconclusive = small, poorly fitted or top-dose-only effect; inactive = no such curve, though single readings can be large or run the other way.
Outcome codes: YES (active), NO (inactive)

Compound: CCCCC(=O)N(Cc1ccc(-c2ccccc2-c2nn[nH]n2)cc1)C(C(=O)O)C(C)C (stereo not given)
Measurement Target: Cytochrome P450 3A4 (Homo sapiens) (UniProt P08684)
Assigned Category: NO
//
Compound: C=CC(=O)c1ccc2ccccc2c1
Measurement Target: Cytochrome P450 3A4 (Homo sapiens) (UniProt P08684)
Assigned Category: YES
//
Compound: CCCCCCCCCCCCCCCC(=O)OC(CO)CO
Measurement Target: Cytochrome P450 3A4 (Homo sapiens) (UniProt P08684)
Assigned Category: NO
//
Compound: CC1O[C@@H](O[C@@H]2C(O)C[C@H](O[C@@H]3C(O)C[C@@H](OC4CC[C@@]5(C)C6CC(O)[C@@]7(C)C(C8=CC(=O)OC8)CC[C@@]7(O)C6CC[C@@H]5C4)OC3C)OC2C)CC(O)[C@H]1O (stereo not given in full)
Measurement Target: Cytochrome P450 3A4 (Homo sapiens) (UniProt P08684)
Assigned Category: NO
//
Compound: CC(=O)N(O)[C@@H]1c2cc(C#N)ccc2OC(C)(C)[C@H]1O
Measurement Target: Cytochrome P450 3A4 (Homo sapiens) (UniProt P08684)
Assigned Category: NO
//
Compound: COc1cccc(CNc2ccc3nc(-c4ccc(N)cc4)c(OC)n3n2)c1
Measurement Target: Cytochrome P450 3A4 (Homo sapiens) (UniProt P08684)
Assigned Category: YES
//
Compound: COc1ccccc1CC(=N)N1C[C@@H]2C(=O)CCC(c3ccccc3)(c3ccccc3)[C@@H]2C1
Measurement Target: Cytochrome P450 3A4 (Homo sapiens) (UniProt P08684)
Assigned Category: YES
//
Compound: Fc1ccc(C(c2ccc(F)cc2)N2CCN(C/C=C\c3ccccc3)CC2)cc1
Measurement Target: Cytochrome P450 3A4 (Homo sapiens) (UniProt P08684)
Assigned Category: NO
//
Compound: COC(=O)C1=C(C)NC(C)=C([N+](=O)[O-])[C@H]1c1ccccc1C(F)(F)F
Measurement Target: Cytochrome P450 3A4 (Homo sapiens) (UniProt P08684)
Assigned Category: YES
//
Compound: CCn1ccnc1C[C@@H]1COc2ccccc2O1
Measurement Target: Cytochrome P450 3A4 (Homo sapiens) (UniProt P08684)
Assigned Category: NO

###

Assay: Confirmation and Secondary Assay for Modulators of Hemoglobin Beta Chain Splicing at IVS2 705 locus (AID 930);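 also: HeLa cells stably expressing the EGFP-705 splicing reporter; GFP fluorescence per well restored by corrected splicing of the IVS2-705 intron in EGFP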
Details: HeLa EGFP-705 splicing reporter, GFP fluorescence, 48 h; series mostly up to 46.1 µM
Method: NIH Chemical Genomics Center [NCGC] NIH Molecular Libraries Screening Centers Network [MLSCN] […] NCGC Assay Protocol Summary: Confirmatory Screening. […] Plates were read in the Acumen Explorer (TTP Labtech) using 488 nm laser excitation and 500-520 nm emission PMT filter in a 1 x […] capture mode. Fluorescnet objects ranging in size from 5 to 250 uM were measured and the total peak GFP intensity for each well was used for data analysis. […]
The source made the active and inactive calls. Calls come from the whole dose curve; as a rule, active = well fitted activation curve with a large enough effect; inconclusive = small, poorly fitted or top-dose-only effect; inactive = flat fitted curve, though single readings scatter.

Molecule: COc1cc(OC)c2ccc(=O)oc2c1
outcome: inactive
//
Molecule: Oc1cc2c(cc1O)[C@H](c1ccccc1)CNCC2
outcome: inactive
//
Molecule: CC(C)=CCCC1(C)C=Cc2c(O)c3c(c(CC=C(C)C)c2O1)OC12C(=CCCC1C(C)(C)O[C@@]2(C/C=C(\C)C(=O)O)C(=O)O)C3=O (stereo not given in full)
outcome: inactive
//
Molecule: CC1=C(\C=C/C(C)=C/C=C\C(C)=C\C(=O)O)C(C)(C)CCC1
outcome: inactive
//
Molecule: COc1cc(O)c2c(=O)c(O)c(-c3ccc(O)c(O)c3)oc2c1
outcome: inactive
//
Molecule: CC1OC(OC2C(CO)OC(OC3C(CO)OC(O)C(O)C3O)C(O)C2O)C(O)C(O)C1NC1C=C(CO)C(O)C(O)C1O (stereo not given)
outcome: inactive
//
Molecule: CCOC(=O)C1=C(C)NC(C)=C(C(=O)OC)[C@H]1c1cccc([N+](=O)[O-])c1
outcome: inactive
//
Molecule: O=c1c(O)cc(C2Oc3cc(O)cc(O)c3CC2O)cc2c(C3Oc4cc(O)cc(O)c4CC3O)cc(O)c(O)c12 (stereo not given)
outcome: inactive
//
Molecule: CC(=O)N[C@@H](C(=O)O)C(C)(C)SN=O
outcome: inactive
//
Molecule: O=C1C=CC(=O)c2c(O)c(Cl)c(Cl)c(O)c21
outcome: inactive
//
Molecule: N[C@H](Cc1ccc(Cl)cc1)C(=O)O
outcome: inactive
//
Molecule: CCCCOc1cc(C[C@@H]2CNC(=O)N2)ccc1OC
outcome: inactive
//
Molecule: COc1cc(/C=C/C(=O)O)ccc1O
outcome: inactive
//
Molecule: CCCCC/C=C\C/C=C\C/C=C\C/C=C\CCCC(=O)O
outcome: inactive
//
Molecule: COc1ccc2cc(C(C)C(=O)O)ccc2c1 (stereo not given)
outcome: inactive
//
Molecule: CC(C)=CCC/C(C)=C/CC/C(C)=C/CC/C(C)=C/CO
outcome: inactive
//
Molecule: CC(C)(C)NC[C@H](O)c1ccc(O)c(CO)c1
outcome: inactive
//
Molecule: CC1O[C@@H](O[C@@H]2C(O)C[C@H](O[C@@H]3C(O)C[C@@H](OC4CC[C@@]5(C)C6CC(O)[C@@]7(C)C(C8=CC(=O)OC8)CC[C@@]7(O)C6CC[C@@H]5C4)OC3C)OC2C)CC(O)[C@H]1O (stereo not given in full)
outcome: inactive
//
Molecule: O=C1c2ccc(O)c(O)c2C(=O)c2c(O)ccc(O)c21
outcome: inactive
//
Molecule: NC(Cc1cc(I)c(Oc2cc(I)c(O)c(I)c2)c(I)c1)C(=O)O (stereo not given)
outcome: inactive
//
Molecule: O=C(OC1Cc2c(O)cc(O)cc2OC1c1cc(O)c(O)c(O)c1-c1c(C2Oc3cc(O)cc(O)c3CC2O)cc(O)c(O)c1O)c1cc(O)c(O)c(O)c1 (stereo not given)
outcome: inactive
//
Molecule: CCN(Cc1ccncc1)C(=O)[C@@H](CO)c1ccccc1
outcome: inactive
//
Molecule: CC(C)=CCC/C(C)=C/CC/C(C)=C/CO
outcome: inactive
//
Molecule: O=C(O)Cc1cc(I)c(Oc2cc(I)c(O)c(I)c2)c(I)c1
outcome: inactive
//
Molecule: CN(Cc1cnc2nc(N)nc(N)c2n1)c1ccc(C(=O)NC(CCC(=O)O)C(=O)O)cc1 (stereo not given)
outcome: inactive
//
Molecule: O=C(O[C@@H]1Cc2c(O)cc(O)cc2OC1c1ccc(O)c(O)c1)c1cc(O)c(O)c(O)c1 (stereo not given in full)
outcome: inactive
//
Molecule: O=C1CC[C@H](N2C(=O)c3ccccc3C2=O)C(=O)N1
outcome: inactive
//
Molecule: O=C(O)c1c2ccccc2cc2ccccc12
outcome: inactive
//
Molecule: Nc1ncnc2c1c(I)cn2C1OC(CO)C(O)C1O (stereo not given)
outcome: inactive
//
Molecule: NCCCCCCNS(=O)(=O)c1cccc2c(Cl)cccc12
outcome: inactive
